- Measured on: UniProtKB P07900
pIC50: −log10 of the molar value.
Readout type: pIC50

Query COc1c(O)cc2cc1C[C@@H](C)C[C@H](OC)[C@H](O)[C@@H](C)/C=C(\C)[C@H](OC(N)=O)[C@@H](OC)CC/C=C(\C)C(=O)N2 yields pIC50 of 7.52 to 8.30

* * *

- Assay notes: cancer cell line cytotoxicity assay
- Reported conditions: human, A549 cells (non-small cell lung cancer cell line)
Readout type: IC50 (nM)
State the answer as a number, implicitly in nM.

COC1=C2C[C@@H](C)C[C@H](OC)[C@H](O)[C@@H](C)/C=C(\C)[C@H](OC(N)=O)[C@@H](OC)/C=C\C=C(/C)C(=O)NC(=CC1=O)C2=O ... 1

Query COc1c(O)cc2cc1C[C@@H](C)C[C@H](OC)[C@H](O)[C@@H](C)/C=C(\C)[C@H](OC(N)=O)[C@@H](OC)CC/C=C(\C)C(=O)N2 yields IC50 of 700

Source of measurements: paper PMC5339036
